# Tested on: C33A
# protocolDescription: Primary qHTS to identify gynecologic anti-cancer compounds using libraries of approved drugs and bioactive compounds (AID 1345084); further: nearly all actives have a fitted effect of over 55% in size
# runParameters: Gynecologic cancer cell panel viability, ATPlite luminescence, 48 h; series mostly up to 57.5 µM
Records with an inconclusive call do not appear. Active and inactive are the calls of the source. The call rests on the fitted dose curve; in most records, active means well fitted cell-killing curve with a large enough effect; inconclusive means small, poorly fitted or top-dose-only effect, or effect the other way; inactive means flat fitted curve, though single readings scatter.
Answer with one of the outcomes given here: label 1 (active), label 0 (inactive)

*Q* Outcome? `Cc1cc2c(cc1CC(=O)c1sccc1S(=O)(=O)Nc1onc(C)c1Cl)OCO2`
*A* label 0

*Q* Next up: CC(Cc1cccc(C(F)(F)F)c1)NCCOC(=O)c1ccccc1 (stereo unspecified)
*A* label 0

*Q* Next up: `O=C(N/N=C/c1ccccc1O)c1ccncc1`
*A* label 0

*Q* Next up: `CC(=O)N/N=C/c1ccc([N+](=O)[O-])o1`
*A* label 0

*Q* Next up: `CCN(CC)CCNC(=O)COc1ccc(Cl)cc1`
*A* label 0

*Q* Next up: `CCN1CCC[C@H]1CNC(=O)c1c(OC)ccc(Br)c1OC`
*A* label 0

*Q* Next up: CC(Cc1ccccc1)(NC(=O)CN)c1ccccc1 (stereo unspecified)
*A* label 0

*Q* Next up: `C[C@@H]1CN(CCCn2c3ccccc3c3ccccc32)C[C@H](C)N1`
*A* label 1

*Q* Next up: `COC(=O)C1=C(C)NC(C)=C(C(=O)O[C@@H]2CCCN(Cc3ccccc3)C2)[C@@H]1c1cccc([N+](=O)[O-])c1`
*A* label 0

*Q* Next up: `C/C=C/c1ccc(OC)cc1`
*A* label 0

*Q* Next up: `C[C@H](O)C(=O)Nc1c(I)c(C(=O)NC(CO)CO)c(I)c(C(=O)NC(CO)CO)c1I`
*A* label 0

###

# Test system: OV90
# protocolDescription: Primary qHTS to identify gynecologic anti-cancer compounds using libraries of approved drugs and bioactive compounds (AID 1345084); further: nearly all actives have a fitted effect of over 55% in size
# runParameters: Gynecologic cancer cell panel viability, ATPlite luminescence, 48 h; series mostly up to 57.5 µM
Results filed as inconclusive are left out. Active and inactive are the calls of the source. Calls come from the whole dose curve; as a rule, active = well fitted cell-killing curve with a large enough effect; inconclusive = small, poorly fitted or top-dose-only effect, or effect the other way; inactive = flat fitted curve, though single readings scatter.
Answer with one of the outcomes given here: active, inactive

*Q* Outcome? `CN(C)CC/C=C1/c2ccccc2COc2ccc(CC(=O)O)cc21`
*A* inactive

*Q* Next up: `CC(C)(C)CC(C)(C)c1ccc(O)c(Cc2ccc(Cl)cc2Cl)c1`
*A* inactive

*Q* Next up: O=C(CCN1CCC(c2ccccc2)C1)c1ccc2c(c1)OCCO2 (stereo not given)
*A* inactive

*Q* Next up: `O=c1[nH]c(=O)n([C@H]2CCCO2)cc1F`
*A* inactive

*Q* Next up: CCCCCCCCCCCCCCCCCC(=O)OCC(O)CO (stereo not given)
*A* inactive

*Q* Next up: `CCN(CC)C(=O)N1CCN(C)CC1`
*A* inactive

*Q* Next up: `CCC(=O)c1c(O)cc(O)cc1O`
*A* inactive

*Q* Next up: `COc1cc(/C=C/C(=O)O[C@H]2CC[C@]34C[C@]35CC[C@]3(C)[C@@H]([C@H](C)CCC=C(C)C)CC[C@@]3(C)[C@@H]5CC[C@H]4C2(C)C)ccc1O`
*A* inactive

*Q* Next up: `CC(=O)OCC(=O)[C@@]12OC(C)(C)O[C@@H]1C[C@H]1[C@@H]3C[C@H](F)C4=CC(=O)C=C[C@]4(C)[C@@]3(F)[C@@H](O)C[C@@]12C`
*A* inactive

*Q* Next up: `CCOc1ccc(Cc2nccc3cc(OCC)c(OCC)cc23)cc1OCC`
*A* active

###

# experimentalSystem: Rap guanine nucleotide exchange factor 4 (Homo sapiens) (UniProt Q8WZA2)
# Sequence (Q8WZA2 whole entry, looked up): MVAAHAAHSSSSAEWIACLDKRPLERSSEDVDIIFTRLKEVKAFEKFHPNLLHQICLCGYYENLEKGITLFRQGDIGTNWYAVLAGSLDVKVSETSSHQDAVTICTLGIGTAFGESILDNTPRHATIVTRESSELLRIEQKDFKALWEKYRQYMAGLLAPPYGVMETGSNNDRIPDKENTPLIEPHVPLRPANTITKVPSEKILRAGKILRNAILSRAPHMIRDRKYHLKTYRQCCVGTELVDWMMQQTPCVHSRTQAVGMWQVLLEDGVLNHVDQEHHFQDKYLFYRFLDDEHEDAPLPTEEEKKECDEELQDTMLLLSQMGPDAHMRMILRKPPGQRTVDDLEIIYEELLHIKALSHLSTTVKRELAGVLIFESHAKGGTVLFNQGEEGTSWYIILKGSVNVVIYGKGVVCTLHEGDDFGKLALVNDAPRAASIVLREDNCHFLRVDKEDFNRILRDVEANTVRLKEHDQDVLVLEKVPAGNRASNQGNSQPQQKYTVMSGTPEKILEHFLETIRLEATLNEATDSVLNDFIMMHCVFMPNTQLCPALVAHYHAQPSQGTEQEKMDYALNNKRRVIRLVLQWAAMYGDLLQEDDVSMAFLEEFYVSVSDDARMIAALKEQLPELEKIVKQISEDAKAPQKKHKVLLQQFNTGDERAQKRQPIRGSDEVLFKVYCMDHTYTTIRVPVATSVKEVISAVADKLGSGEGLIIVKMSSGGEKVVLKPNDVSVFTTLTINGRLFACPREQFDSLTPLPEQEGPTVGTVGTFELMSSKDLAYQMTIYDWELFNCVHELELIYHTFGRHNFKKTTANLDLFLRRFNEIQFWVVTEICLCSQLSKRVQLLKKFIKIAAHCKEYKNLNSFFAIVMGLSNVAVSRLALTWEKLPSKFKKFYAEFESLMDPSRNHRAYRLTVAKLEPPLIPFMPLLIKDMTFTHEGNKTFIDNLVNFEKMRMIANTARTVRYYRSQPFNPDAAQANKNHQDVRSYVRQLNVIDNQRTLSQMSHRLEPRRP
# protocolDescription: Confirmatory qHTS for antagonist of cAMP-regulated guanine nucleotide exchange factor 4 (EPAC2) (AID 1645885); further: nearly all actives have a fitted effect of over 25% in size
# runParameters: EPAC2 Rap1B-BODIPY-GDP exchange fluorescence, biochemical; series mostly up to 114 µM
Inconclusive results are not listed. Active and inactive are the calls of the source. The call rests on the fitted dose curve; in most records, active means well fitted inhibition curve with a large enough effect; inconclusive means small, poorly fitted or top-dose-only effect; inactive means no such curve, though single readings can be large or run the other way.
outcomeMeasure: outcome

CC(C)C[C@H]1C(=O)N2CCC[C@H]2[C@]2(O)O[C@](NC(=O)[C@@H]3C=C4c5cccc6[nH]c(Br)c(c56)C[C@H]4N(C)C3)(C(C)C)C(=O)N12 : inactive
C#C[C@]1(OC(C)=O)CC[C@H]2[C@@H]3CCC4=C[C@@H](OC(C)=O)CC[C@@H]4[C@H]3CC[C@@]21C : inactive
COc1cccc2c1C(=O)c1c(O)c3c(c(O)c1C2=O)C[C@@](O)(C(C)=O)C[C@@H]3O[C@H]1C[C@H](N)[C@H](O)[C@H](C)O1 : inactive

###

# System: CP297
# protocolDescription: qHTS profiling for inhibitors of Plasmodium falciparum proliferation (AID 504749); further: nearly all actives have a fitted effect of over 60% in size
# runParameters: P. falciparum in erythrocytes, SYBR Green DNA, 72 h; series mostly up to 28.7 µM
Inconclusive results are not listed. The source made the active and inactive calls. The call rests on the fitted dose curve; in most records, active means well fitted inhibition curve with a large enough effect; inconclusive means small, poorly fitted or top-dose-only effect; inactive means flat fitted curve, though single readings scatter.
Answer with one of the outcomes given here: active, inactive

*Q* Outcome? `COC(=O)[C@@H]1CC2=CC(=O)CC[C@]2(C)[C@@]23O[C@@H]2C[C@@]2(C)[C@@H](CC[C@@]24CCC(=O)O4)[C@H]13`
*A* inactive

*Q* Next up: `CC(=O)N(O)CCCCCNC(=O)CCC(=O)N(O)CCCCCNC(=O)CCC(=O)N(O)CCCCCN`
*A* inactive

*Q* Next up: `CCn1cc(C(=O)O)c(=O)c2cnc(N3CCCC3)nc21`
*A* inactive

*Q* Next up: `CC(=O)c1ccc2c(c1)N(CCCN1CCC(CCO)CC1)c1ccccc1S2`
*A* inactive

*Q* Next up: `c1ccc(OCc2ccc(CCCN3CCOCC3)cc2)cc1`
*A* inactive

*Q* Next up: `CCN(CC)C(=O)N1CCN(C)CC1`
*A* inactive

*Q* Next up: `NC(=NCCCCCCN=C(N)/N=C(\N)Nc1ccc(Cl)cc1)/N=C(\N)Nc1ccc(Cl)cc1`
*A* active

*Q* Next up: `CC(C)COC(=O)c1ccc(N)cc1`
*A* inactive

*Q* Next up: `C#C[C@]1(O)CC[C@H]2[C@@H]3CCc4cc(OC5CCCC5)ccc4[C@H]3CC[C@@]21C`
*A* inactive

*Q* Next up: `COc1ccc(CCN2CCC(Nc3nc4ccccc4n3Cc3ccc(F)cc3)CC2)cc1`
*A* active

*Q* Next up: `COc1c(C)c2c(c(O)c1C/C=C(\C)CCC(=O)O)C(=O)OC2`
*A* active

*Q* Next up: `CCCCc1nc(Cl)c(CO)n1Cc1ccc(-c2ccccc2-c2nn[nH]n2)cc1`
*A* inactive

*Q* Next up: `CCCn1c(=O)[nH]c(=O)c2[nH]cnc21`
*A* inactive

*Q* Next up: `CN(C)CCCOc1nn(Cc2ccccc2)c2ccccc12`
*A* inactive

*Q* Next up: O=C(CCN1CCC(c2ccccc2)C1)c1ccc2c(c1)OCCO2 (stereo not drawn)
*A* inactive

*Q* Next up: c1ccc(-c2ccc(C(c3ccccc3)n3ccnc3)cc2)cc1 (stereo not drawn)
*A* active

*Q* Next up: `CC(=O)OCC(=O)NCCCOc1cccc(CN2CCCCC2)c1`
*A* inactive

*Q* Next up: `C[C@@H]1C(=O)NC2=Nc3cccc(Cl)c3CN21`
*A* inactive

*Q* Next up: `CN(C)/N=N/c1nc[nH]c1C(N)=O`
*A* inactive

*Q* Next up: `NCCC(O)(P(=O)(O)O)P(=O)(O)O`
*A* inactive

*Q* Next up: `Cc1cc(O)c(C(C)C)cc1Cl`
*A* inactive

*Q* Next up: CCOc1ccc(NC(=O)CC(C)O)cc1 (stereo not drawn)
*A* inactive

*Q* Next up: `CCOC(=O)/C=C(C)/C=C/C=C(C)/C=C/c1c(C)cc(OC)c(C)c1C`
*A* inactive

###

# System: CP291
# protocolDescription: qHTS profiling for inhibitors of Plasmodium falciparum proliferation (AID 504749); further: nearly all actives have a fitted effect of over 60% in size; further: potency means the concentration at half of the fitted maximal effect
# runParameters: P. falciparum in erythrocytes, SYBR Green DNA, 72 h; series mostly up to 28.7 µM
Records with an inconclusive call do not appear. Activity calls are given as the source filed them. Calls come from the whole dose curve; as a rule, active = well fitted inhibition curve with a large enough effect; inconclusive = small, poorly fitted or top-dose-only effect; inactive = flat fitted curve, though single readings scatter.
outcomeMeasure: Potency

Examples with their reported Potency follow.
CC(C)COC(=O)OCN1C(=O)CN(CCN2CC(=O)N(COC(=O)OCC(C)C)C(=O)C2)CC1=O : inactive
CCOC(=O)COc1ccc2c(C)c(CCN(CC)CC)c(=O)oc2c1Cl : inactive
Cc1ncc(CSSCc2cnc(C)c(O)c2CO)c(CO)c1O : inactive
CN(C(=O)CN(CCO)CC(=O)N(C)C(C)(C)Cc1ccccc1)C(C)(C)Cc1ccccc1 : inactive
CCCCOc1ccc(OCCCN2CCOCC2)cc1 : inactive

// moving on: another record for Potency
*Q* For `Cc1ccnc(NS(=O)(=O)c2ccc(N)cc2)n1` , what is its reported Potency?
*A* inactive

###

# Test system: DIV30
# protocolDescription: qHTS profiling for inhibitors of Plasmodium falciparum proliferation (AID 504749); further: nearly all actives have a fitted effect of over 60% in size
# runParameters: P. falciparum in erythrocytes, SYBR Green DNA, 72 h; series mostly up to 28.7 µM
Results filed as inconclusive are left out. Active and inactive are the calls of the source. Calls come from the whole dose curve; as a rule, active = well fitted inhibition curve with a large enough effect; inconclusive = small, poorly fitted or top-dose-only effect; inactive = flat fitted curve, though single readings scatter.
Answer with one of the outcomes given here: 1.0 = active, 0.0 = inactive

*Q* Outcome? `O=C1CCC(c2ccc(-n3ccnc3)cc2)=NN1`
*A* 0.0

*Q* Next up: `Oc1c(Cl)cc(Cl)cc1Sc1cc(Cl)cc(Cl)c1O`
*A* 0.0

*Q* Next up: `CCN1CCN(c2cc3c(cc2F)c(=O)c(C(=O)O)cn3C2CC2)CC1`
*A* 0.0

*Q* Next up: `CCN(CC)CCNC(=O)COc1ccc(Cl)cc1`
*A* 0.0

*Q* Next up: `CC1(C)CCC(NC(=O)[C@@H](N)CCC(=O)O)CC1`
*A* 0.0

*Q* Next up: `COCc1c(C(C)C)nc(C(C)C)c(/C=C/[C@@H](O)C[C@@H](O)CC(=O)O)c1-c1ccc(F)cc1`
*A* 0.0

*Q* Next up: `Cc1cc(=O)n(-c2ccccc2)n1C`
*A* 0.0

*Q* Next up: `CCOC(=O)/C=C(C)/C=C/C=C(C)/C=C/c1c(C)cc(OC)c(C)c1C`
*A* 0.0

*Q* Next up: `C[N+]1(CCCCC[N+]2(C)CCCC2)CCCC1`
*A* 0.0

*Q* Next up: CCOc1ccc(NC(=O)CC(C)O)cc1 (stereo not drawn)
*A* 0.0

*Q* Next up: `O=S1(=O)c2cccc3cccc(c23)N1CCCN1CCN(c2ccc(F)cc2)CC1`
*A* 0.0

*Q* Next up: `NC(CO)(CO)CO`
*A* 0.0

*Q* Next up: `O=C(O)CNC(=O)c1ccccc1`
*A* 0.0

*Q* Next up: Cc1c(F)c(N2CCNC(C)C2)cc2c1c(=O)c(C(=O)O)cn2C1CC1 (stereo not drawn)
*A* 0.0

*Q* Next up: `CC(C)(C)CC(C)(C)c1ccc(OCCOCC[N+](C)(C)Cc2ccccc2)cc1`
*A* 1.0

*Q* Next up: `CC(=O)N/N=C/c1ccc([N+](=O)[O-])o1`
*A* 0.0

*Q* Next up: `Cc1cccn2c(=O)c(-c3nnn[nH]3)cnc12`
*A* 0.0

*Q* Next up: `Nc1ccc(C(=O)O)cc1`
*A* 0.0

*Q* Next up: `CC(=O)Oc1ccc(C(=C2CCCCC2)c2ccc(OC(C)=O)cc2)cc1`
*A* 0.0

*Q* Next up: `COc1ccc(/C=C/C(=O)c2ccc(OC)cc2OC)cc1`
*A* 1.0

*Q* Next up: CCOC(=O)OC(C)OC1=C(C(=O)Nc2ccccn2)N(C)S(=O)(=O)c2ccccc21 (stereo not drawn)
*A* 0.0

*Q* Next up: `N[C@H](Cc1c[nH]c2ccccc12)C(=O)O`
*A* 0.0

*Q* Next up: CCN(CC)CCOC(=O)C(c1ccccc1)C1CCCCC1 (stereo not drawn)
*A* 0.0

*Q* Next up: `CCCCC1=NC2(CCCC2)C(=O)N1Cc1ccc(-c2ccccc2-c2nn[nH]n2)cc1`
*A* 0.0

*Q* Next up: `O=C1[C@H]2CCCC[C@H]2C(=O)N1CCCCN1CCN(c2nsc3ccccc23)CC1`
*A* 0.0

*Q* Next up: `C[C@@H]1C(=O)NC2=Nc3cccc(Cl)c3CN21`
*A* 0.0

*Q* Next up: CN1C(CCl)Nc2cc(Cl)c(S(N)(=O)=O)cc2S1(=O)=O (stereo not drawn)
*A* 0.0

*Q* Next up: CCC(C(=O)OCCN(CC)CC)c1ccccc1 (stereo not drawn)
*A* 0.0

*Q* Next up: `C=CCc1ccc(O)c(OC)c1`
*A* 0.0

*Q* Next up: `C1CCc2nnnn2CC1`
*A* 0.0

*Q* Next up: `CCCN1CCCC[C@H]1C(=O)Nc1c(C)cccc1C`
*A* 0.0

*Q* Next up: `COc1c(C)c2c(c(O)c1C/C=C(\C)CCC(=O)O)C(=O)OC2`
*A* 1.0

*Q* Next up: `NCCCC[C@H](N[C@@H](CCc1ccccc1)C(=O)O)C(=O)N1CCC[C@H]1C(=O)O`
*A* 0.0

*Q* Next up: `COc1ccc(CCN2CCC(Nc3nc4ccccc4n3Cc3ccc(F)cc3)CC2)cc1`
*A* 1.0

*Q* Next up: `CC(C)(CO)[C@@H](O)C(=O)NCCCO`
*A* 0.0

*Q* Next up: CN1C2CCC1CC(OC(=O)c1c[nH]c3ccccc13)C2 (stereo not drawn)
*A* 0.0

*Q* Next up: `CCN(CC)C(=O)N1CCN(C)CC1`
*A* 0.0

*Q* Next up: `NCCc1ccn[nH]1`
*A* 0.0

*Q* Next up: `Cc1cc(O)c(C(C)C)cc1Cl`
*A* 0.0

*Q* Next up: `CC[N+](CC)(CCNC(=O)C(=O)NCC[N+](CC)(CC)Cc1ccccc1Cl)Cc1ccccc1Cl`
*A* 1.0

*Q* Next up: `CCCCCCc1ccc(O)cc1O`
*A* 0.0

*Q* Next up: `CCN(CC)C(=O)/C(C#N)=C/c1cc(O)c(O)c([N+](=O)[O-])c1`
*A* 0.0

*Q* Next up: `Cc1ncc(CSSCc2cnc(C)c(O)c2CO)c(CO)c1O`
*A* 0.0

*Q* Next up: `CCN1CCC[C@H]1CNC(=O)c1c(OC)ccc(Br)c1OC`
*A* 0.0

*Q* Next up: C[C@H]1[C@H](NC(=O)/C(=N/OC(C)(C)C(=O)O)c2csc(N)n2)C(=O)N1S(=O)(=O)O (stereo in doubt)
*A* 0.0

*Q* Next up: `Cc1c(C)n(Cc2ccccc2)c2ccc(C(=O)OCCN(C)C)cc12`
*A* 0.0

*Q* Next up: c1ccc(-c2ccc(C(c3ccccc3)n3ccnc3)cc2)cc1 (stereo not drawn)
*A* 1.0

*Q* Next up: `CCCCCCC[N+](CC)(CC)CCCCc1ccc(Cl)cc1`
*A* 1.0
